Below, each entry is listed alongside its reported IC50.
Target: ALPK1 (Homo sapiens (Human))
Sequence (Q96QP1 whole entry): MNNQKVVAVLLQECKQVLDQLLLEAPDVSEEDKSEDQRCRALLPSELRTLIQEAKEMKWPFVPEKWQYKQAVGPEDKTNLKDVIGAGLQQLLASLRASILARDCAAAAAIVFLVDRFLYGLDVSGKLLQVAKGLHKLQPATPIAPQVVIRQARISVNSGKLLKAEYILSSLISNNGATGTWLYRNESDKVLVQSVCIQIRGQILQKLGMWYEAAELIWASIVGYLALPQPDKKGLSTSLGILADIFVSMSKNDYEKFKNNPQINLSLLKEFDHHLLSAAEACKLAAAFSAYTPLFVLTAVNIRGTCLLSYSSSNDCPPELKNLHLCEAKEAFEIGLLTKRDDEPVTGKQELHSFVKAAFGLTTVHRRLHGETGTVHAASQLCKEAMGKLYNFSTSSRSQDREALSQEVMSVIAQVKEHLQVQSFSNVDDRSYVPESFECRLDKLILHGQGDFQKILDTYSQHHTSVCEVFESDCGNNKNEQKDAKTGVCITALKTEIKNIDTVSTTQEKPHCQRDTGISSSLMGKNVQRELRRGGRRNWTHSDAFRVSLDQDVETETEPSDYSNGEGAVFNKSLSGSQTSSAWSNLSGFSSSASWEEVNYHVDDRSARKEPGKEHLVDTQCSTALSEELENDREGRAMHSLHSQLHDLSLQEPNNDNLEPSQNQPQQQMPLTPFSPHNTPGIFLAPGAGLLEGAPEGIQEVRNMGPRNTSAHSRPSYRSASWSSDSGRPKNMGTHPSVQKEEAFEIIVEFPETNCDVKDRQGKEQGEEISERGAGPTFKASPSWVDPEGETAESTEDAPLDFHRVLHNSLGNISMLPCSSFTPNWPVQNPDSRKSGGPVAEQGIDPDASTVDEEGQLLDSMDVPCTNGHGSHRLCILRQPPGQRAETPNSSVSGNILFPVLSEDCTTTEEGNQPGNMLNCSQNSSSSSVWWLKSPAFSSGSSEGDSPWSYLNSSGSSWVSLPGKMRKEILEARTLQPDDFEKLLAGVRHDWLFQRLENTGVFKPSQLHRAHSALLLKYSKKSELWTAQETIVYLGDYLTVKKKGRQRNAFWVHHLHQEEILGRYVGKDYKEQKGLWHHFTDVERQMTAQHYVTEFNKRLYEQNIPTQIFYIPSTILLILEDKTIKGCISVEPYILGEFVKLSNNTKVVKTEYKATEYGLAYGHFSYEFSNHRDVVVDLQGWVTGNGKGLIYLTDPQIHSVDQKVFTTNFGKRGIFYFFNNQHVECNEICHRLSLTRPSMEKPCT
Test: ALPK1 in vitro kinase assay (HTRF of TIFA phosphorylation)
Format: biochemical
Entry rule: numbers only, all in nM.

>>> measured_value("C#CC(C)(c1ccc(Br)cc1)c1csc(NC(=O)NCC2(O)CCNCC2)n1 (centres unmarked)")
19
>>> measured_value("COc1ccc(CNC(=O)Nc2nc(C(C)(C)c3ccc(Br)cc3)cs2)cc1F")
216

Return reported IC50. Input compound: `CC(C)(c1ccc(Br)cc1)c1csc(NC(=O)NCc2cnc(N3CCC(N)CC3)nc2)n1`
13

Return reported IC50. Input compound: C#CC(C)(c1ccc(OC)cc1)c1csc(NC(=O)NCCO)n1 (centres unmarked)
27

Return reported IC50. Input compound: `O=C(NCc1ccc(N2CCNCC2)cc1)Nc1nc(C2(c3ccc(Br)cc3)CCCC2)cs1`
24

Return reported IC50. Input compound: `C#C[C@](C)(c1ccc(Br)cc1)c1csc(NC(=O)N2CC(CO)C2)n1`
25

Return reported IC50. Input compound: `COc1ccc(C(C)(C)c2csc(NC(=O)NCc3cc(F)c(N4CCNCC4)c(F)c3)n2)cc1`
45

Return reported IC50. Input compound: `C#C[C@@](C)(c1ccc(Cl)cc1)c1csc(NC(=O)NC2(CO)CC2)n1`
522

Return reported IC50. Input compound: `C#C[C@@](C)(c1ccc(Cl)cc1)c1csc(NC(=O)N2CC(CO)C2)n1`
357

Return reported IC50. Input compound: C#C[C@@](C)(c1ccc(Cl)cc1)c1csc(NC(=O)NC(CO)CO)n1 (stereo in doubt)
246

Return reported IC50. Input compound: C#C[C@@](C)(c1ccc(Cl)cc1)c1csc(NC(=O)NCC2(O)CNC2)n1 (stereo in doubt)
130

Return reported IC50. Input compound: `CCNC(=O)Nc1nc(C(C)(C)c2ccc(OC)cc2)cs1`
42

Return reported IC50. Input compound: `CC(C)(c1ccc(Cl)c(F)c1)c1csc(NC(=O)NCc2ccc(N3CCNCC3)cc2)n1`
345

Return reported IC50. Input compound: COc1ccc(C(C)(C)c2csc(NC(=O)NCCOCCN3CCC(N)C3)n2)cc1 (centres unmarked)
143

Return reported IC50. Input compound: `Cc1nc(N2CCNCC2)ncc1CNC(=O)Nc1nc(C(C)(C)c2ccc(Br)cc2)cs1`
26

Return reported IC50. Input compound: C#CC(C)(c1ccc(Cl)cc1)c1csc(NC(=O)NCCS(N)(=O)=O)n1 (centres unmarked)
23

Return reported IC50. Input compound: C#CC(C)(c1ccc(Cl)cc1)c1csc(NC(=O)N2CC(CN3CCNCC3)C2)n1 (centres unmarked)
48
